Target: human VDR (Homo sapiens, UniProt P11473)
Sequence (P11473 whole entry): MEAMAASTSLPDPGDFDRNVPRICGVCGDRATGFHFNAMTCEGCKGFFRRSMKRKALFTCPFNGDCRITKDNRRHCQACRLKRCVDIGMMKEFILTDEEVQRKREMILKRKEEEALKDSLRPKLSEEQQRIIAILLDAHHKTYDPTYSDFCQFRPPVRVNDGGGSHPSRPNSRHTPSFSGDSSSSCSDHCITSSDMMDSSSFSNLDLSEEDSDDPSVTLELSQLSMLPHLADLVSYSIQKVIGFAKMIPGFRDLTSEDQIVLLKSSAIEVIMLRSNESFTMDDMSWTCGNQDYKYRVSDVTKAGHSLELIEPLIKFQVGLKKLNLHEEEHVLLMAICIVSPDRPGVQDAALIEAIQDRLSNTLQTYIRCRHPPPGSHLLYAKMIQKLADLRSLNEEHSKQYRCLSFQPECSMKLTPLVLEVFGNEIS
Sequence (P19793 whole entry partner): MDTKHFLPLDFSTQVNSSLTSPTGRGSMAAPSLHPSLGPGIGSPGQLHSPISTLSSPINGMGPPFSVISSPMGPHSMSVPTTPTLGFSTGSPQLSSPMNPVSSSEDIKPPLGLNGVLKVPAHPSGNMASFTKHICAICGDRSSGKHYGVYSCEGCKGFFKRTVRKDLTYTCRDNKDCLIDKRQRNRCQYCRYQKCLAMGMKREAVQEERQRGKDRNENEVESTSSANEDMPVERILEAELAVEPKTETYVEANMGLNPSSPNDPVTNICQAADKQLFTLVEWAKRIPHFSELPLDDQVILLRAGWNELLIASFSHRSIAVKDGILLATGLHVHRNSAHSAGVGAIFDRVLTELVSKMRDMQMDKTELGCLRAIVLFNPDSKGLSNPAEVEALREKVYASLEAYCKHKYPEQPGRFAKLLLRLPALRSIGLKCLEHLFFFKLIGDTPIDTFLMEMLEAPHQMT
Test: Evaluation of VDR transcription activity in human osteoblasts (HOS cells), luciferase reporter
Settings: Activity (EC50, VDR transcription activity), HOS cells transfected with human VDR, human RXRα and DR3 luciferase reporter; 21 hours
Catalogue of EC50 values

Consider the following illustrative entries.
Query string: Specify measured EC50 for C=C1/C(=C\C=C2/CCC[C@]3(C)[C@@H]([C@H](C)CN4CCC[C@H](C(C)(F)F)C4)CC[C@@H]23)C[C@@H](O)[C@H](C)[C@@H]1O [Compound C054] .
Result string: 10 to 100 nM

Query string: # return recorded EC50 for input C=C1[C@H](O)CC(=C/C=C2\CCC[C@]3(C)[C@@H]([C@H](C)CCN4CCO[C@H](C)C4)CC[C@@H]23)C[C@H]1O [Compound D040]
Result string: 1 to 10 nM

More entries:
Query string: Indicate its recorded EC50; the compound in question is C[C@H](CN1CCCC(O)(C(F)F)C1)[C@H]1CC[C@H]2/C(=C/C=C3C[C@@H](O)C[C@H](O)C3)CCC[C@]12C (single isomer, unassigned) [Compound C035b]
Result string: 10 to 100 nM

This collection of values is drawn from patent US20230348376A1.
